# EXPERIMENTAL TARGET: Fyn (UniProt P06241)
# Sequence (P06241 whole entry, looked up): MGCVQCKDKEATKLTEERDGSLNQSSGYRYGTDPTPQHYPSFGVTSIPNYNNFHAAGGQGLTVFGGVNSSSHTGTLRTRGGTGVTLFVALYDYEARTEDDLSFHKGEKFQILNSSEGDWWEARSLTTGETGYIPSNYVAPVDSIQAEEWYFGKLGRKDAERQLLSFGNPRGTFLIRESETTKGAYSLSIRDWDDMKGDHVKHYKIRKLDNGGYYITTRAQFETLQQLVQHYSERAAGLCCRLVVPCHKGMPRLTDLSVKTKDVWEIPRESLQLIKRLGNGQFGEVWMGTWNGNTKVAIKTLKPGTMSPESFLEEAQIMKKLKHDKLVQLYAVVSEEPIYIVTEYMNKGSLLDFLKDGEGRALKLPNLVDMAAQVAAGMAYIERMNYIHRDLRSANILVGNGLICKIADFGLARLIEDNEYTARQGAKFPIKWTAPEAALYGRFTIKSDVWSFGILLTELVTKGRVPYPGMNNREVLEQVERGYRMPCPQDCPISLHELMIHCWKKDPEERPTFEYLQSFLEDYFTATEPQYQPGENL
# PROCEDURE TEXT: phosphorylation enrichment, bacterial display (enrichment ratio); higher = better substrate or ligand; peptides without Tyr show the background;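 note: 11-residue human phosphosite peptides and single-mutation variants displayed on the E. coli surface, counted by deep sequencing, each peptide's frequency after selection divided by its frequency in the unselected input library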;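 note: frequency after pTyr selection over input frequency; kinase dosed for 20-30% of maximal phosphorylation in three min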
QUANTITY NAME: phosphorylation enrichment
Numbers only.

Solved entries:
CHAIN SEQUENCE: FKELVYETVRV [FSHB_Y76]
phosphorylation enrichment: 11.2

CHAIN SEQUENCE: SIKNKYVTALY [KCNH2_Y611_D609N]
phosphorylation enrichment: 0.359

CHAIN SEQUENCE: AVLSLYASGCT [ACTA2_Y145_R149C]
phosphorylation enrichment: 0.538

CHAIN SEQUENCE: GTQCSYLLSRK [UGT3A1_Y123]
phosphorylation enrichment: 0.329

CHAIN SEQUENCE: GPQGVYSNKLV [PTPN14_Y506]
phosphorylation enrichment: 0.633

CHAIN SEQUENCE: PEACDYGLGGG [GSTO1_Y239]
phosphorylation enrichment: 0.691

Need phosphorylation enrichment for each of these sequences.
1. KSVSQYLEMDK [CAGE1_Y438]
2. ELTSKYRGGGG [HBA1_Y141_V136E]
3. MRALIYNSSTA [PLEKHA7_Y243]
4. GADDSYFTVRS [ZAP70_Y492_A495V_YF]

[0.414, 0.353, 0.622, 0.604]

Kindly give each listed record's phosphorylation enrichment.
1. IIRFNYLLDVL [FGFR4_Y237_S232I_YF]
2. PLLEFYWDIFT [CDAN1_Y713_R714W_YF]
3. LLILEYAKFGS [RET_Y806_V804L_YF]
4. EIIPFYGMSTF [FNDC3B_Y175_YF]
5. EAESWYQTKFE [KRT75_Y342_YF]
6. PLEGEYFTLQI [TP53_Y327_D324E]

1: 0.513; 2: 0.448; 3: 1.01; 4: 0.687; 5: 0.662; 6: 9.83

For each of the sequences below, note its phosphorylation enrichment.
1. PRLMLYNPTTF [EGFR_Y270_P266R_YF]
2. VEKGSYSALLA [ABCC2_Y845]
3. RAYSWYQHQRA [NDST1_Y714]
4. VVFIKYLPEWT [PSEN1_Y240_L235V]
5. ELPEKYSQNIF [PKP2_Y626_YF]
6. KDQGTYEDFVE [MYL6_Y86_YF]
7. SSREEYFIGGG [GYPC_Y126_K124E]
8. VDDQIYFFRKP [PBRM1_Y1289_E1287Q_YF]

1: 0.748; 2: 0.332; 3: 0.242; 4: 0.335; 5: 0.413; 6: 0.616; 7: 0.574; 8: 6.38

The following sequences each have a reported value; give each one's phosphorylation enrichment.
1. KSPDSYQKILL [ATM_Y1415]
2. EIVYVYVKKRS [DNAI2_Y7]
3. SIRFNYLLDVL [FGFR4_Y237_YF]
4. AVISVYDLVAF [PSEN1_Y256_V261F]
5. DDPRTYQKFGF [OAS1_Y362_R361T_YF]

[0.372, 0.354, 0.432, 8.21, 0.717]

====

# System: c-Src
# PROCEDURE TEXT: phosphorylation enrichment, bacterial display (enrichment ratio); higher = better substrate or ligand; peptides without Tyr show the background
QUANTITY NAME: phosphorylation enrichment
One number for each entry.

// known answers, use as guide
CHAIN SEQUENCE: QLHRKYCLSPR [HJURP_Y445_E444K]
RESULT VALUE: 0.636

CHAIN SEQUENCE: GGDQPYSGAGD [TYRO3_Y828_R824G]
RESULT VALUE: 0.432

CHAIN SEQUENCE: TTSQLYDAMPI [PDPK1_Y9_V12M]
RESULT VALUE: 3.9

CHAIN SEQUENCE: QWRTKYETDTI [MYH7_Y1375_A1379T]
RESULT VALUE: 0.56

CHAIN SEQUENCE: STEAIYRRYSK [SH3PXD2B_Y42]
RESULT VALUE: 0.52

CHAIN SEQUENCE: TTKGSYSLFVR [HCK_Y180_S183Y_YF]
RESULT VALUE: 0.419

Lab note: need phosphorylation enrichment with c-Src for entry GFVEDYRPPFY [ACVRL1_Y421_I417F] , please look it up. 0.522
